- system_under_test: Protein deacetylase HDAC6 (Homo sapiens, UniProt Q9UBN7)
- Sequence (Q9UBN7 whole entry): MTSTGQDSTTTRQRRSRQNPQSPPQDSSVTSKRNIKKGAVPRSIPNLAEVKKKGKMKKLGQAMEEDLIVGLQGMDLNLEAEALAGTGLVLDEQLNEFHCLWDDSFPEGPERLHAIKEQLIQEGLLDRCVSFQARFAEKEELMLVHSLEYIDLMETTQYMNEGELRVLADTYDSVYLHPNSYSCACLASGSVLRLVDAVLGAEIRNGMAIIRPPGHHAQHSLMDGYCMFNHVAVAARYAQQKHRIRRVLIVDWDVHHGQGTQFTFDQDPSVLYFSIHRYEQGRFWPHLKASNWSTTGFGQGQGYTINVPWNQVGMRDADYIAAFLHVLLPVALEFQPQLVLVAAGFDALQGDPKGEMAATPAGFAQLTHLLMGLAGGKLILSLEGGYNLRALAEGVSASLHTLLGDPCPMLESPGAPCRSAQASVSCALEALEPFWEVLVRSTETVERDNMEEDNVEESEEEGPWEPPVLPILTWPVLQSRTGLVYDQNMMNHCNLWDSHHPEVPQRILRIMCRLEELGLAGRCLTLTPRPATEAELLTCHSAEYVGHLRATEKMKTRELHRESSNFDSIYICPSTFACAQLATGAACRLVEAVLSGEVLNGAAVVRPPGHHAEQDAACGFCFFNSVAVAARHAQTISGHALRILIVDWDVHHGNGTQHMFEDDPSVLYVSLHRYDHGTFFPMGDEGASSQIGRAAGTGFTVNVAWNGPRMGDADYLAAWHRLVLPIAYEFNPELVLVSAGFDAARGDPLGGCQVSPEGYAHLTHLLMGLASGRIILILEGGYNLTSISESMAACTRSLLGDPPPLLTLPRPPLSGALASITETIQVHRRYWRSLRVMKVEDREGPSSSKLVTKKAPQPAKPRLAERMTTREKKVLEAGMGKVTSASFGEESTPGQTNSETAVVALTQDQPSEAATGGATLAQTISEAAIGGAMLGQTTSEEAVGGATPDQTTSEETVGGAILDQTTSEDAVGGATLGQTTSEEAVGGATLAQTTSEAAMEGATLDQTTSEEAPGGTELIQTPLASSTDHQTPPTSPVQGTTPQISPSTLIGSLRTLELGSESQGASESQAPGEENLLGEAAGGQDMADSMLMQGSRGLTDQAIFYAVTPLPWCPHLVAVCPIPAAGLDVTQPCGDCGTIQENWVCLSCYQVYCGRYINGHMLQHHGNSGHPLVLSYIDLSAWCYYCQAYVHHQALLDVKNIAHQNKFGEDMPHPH
- procedure_summary: Inhibition of human recombinant HDAC6 using RHKKAc peptide as substrate incubated for 5 to mins prior to substrate addition measured after 2 hrs
quantity_kind: IC50 (nM)
State the answer as a number, implicitly in nM.

Field: example entries. Status: answers known.
>>> print(df.to_string())
                               input_smiles  quantity_kind  value_reported
0  Cc1ccc2c3c(n(Cc4ccc(C(=O)NO)cc4)c2c1)CCN(C)C3           IC50            11.5
1  CN1CCc2c(c3cc(Br)ccc3n2Cc2ccc(C(=O)NO)cc2)C1           IC50           0.704
2  COc1ccc(CN2CCc3c(c4ccccc4n3Cc3ccc(C(=O)NO)cc3)C2)cc1           IC50            3.05

Next item in the queue.
Need IC50, item `Cc1cccc2c3c(n(Cc4ccc(C(=O)NO)cc4)c12)CCN(C)C3`
34.7
